- TEST DESCRIPTION: Tmax in ICR mouse at 10 mg/kg, IG measured upto 24 hrs by LC-MS analysis
- Assay type: ADME, organism-based
- CONDITION CONTEXT: in vivo, po
EXPERIMENTAL READOUT: Tmax (h)
Express the result in h but write the number alone.

Look over these answered cases.
COMPOUND | Tmax / h
O=C1O[C@@H](CO)CN1c1ccc(-c2ccc(/C=N/N3CCCCC3)nc2)c(F)c1 | 2
CC(=O)NC[C@H]1CN(c2ccc(N3CCOCC3)c(F)c2)C(=O)O1 | 0.25
CC(C)N/N=C/c1ccc(-c2ccc(N3C[C@H](CO)OC3=O)cc2F)cn1 | 0.25

Please examine the following record next.
get_value(item= O=C1O[C@@H](CO)CN1c1ccc(-c2ccc(/C=N/N3CCOCC3)nc2)c(F)c1 , readout=Tmax) returns 2

====

This listing pairs compounds with measured half-life.
- TEST DESCRIPTION: Microsomal stability in human liver microsomes assessed as elimination half life pretreated with compound upto 60 mins followed by NADPH addition and measured after 60 mins by LC/MS analysis
- Format: ADME, Microsome
- CONDITION CONTEXT: liver microsomes, time < 120 min, read-out: beta t1/2
Returns: string containing the numeric result and its unit.

COMPOUND | half-life
O=C1O[C@@H](CO)CN1c1ccc(-c2ccc(/C=N/N3CCOCC3)nc2)c(F)c1 | 1.83 h
O=C1O[C@@H](CO)CN1c1ccc(-c2ccc(/C=N/N3CCS(=O)(=O)CC3)nc2)c(F)c1 | 15.3 h

Here's the next entry for you.
Lab book: half-life of CC(C)N/N=C/c1ccc(-c2ccc(N3C[C@H](CO)OC3=O)cc2F)cn1 noted as 4.68 h

====

Listing of entries alongside the reported remaining at 1 h.
- TEST DESCRIPTION: Stability in mouse plasma assessed as parent compound remaining at 37 degreeC measured upto 60 mins by HPLC analysis
- Format: ADME, cell-free
- CONDITION CONTEXT: read-out: Stability
Kindly answer with a numeric value in %, unit omitted.

Consider the worked cases shown below.
COMPOUND | EXPERIMENTAL READOUT | MEASURED NUMBER
O=C1O[C@@H](CO)CN1c1ccc(-c2ccc(/C=N/N3CCOCC3)nc2)c(F)c1 | remaining at 1 h | 98.3
CC(=O)NC[C@H]1CN(c2ccc(N3CCOCC3)c(F)c2)C(=O)O1 | remaining at 1 h | 105
O=C1O[C@@H](CO)CN1c1ccc(-c2ccc(/C=N/N3CCCCC3)nc2)c(F)c1 | remaining at 1 h | 111
O=C1O[C@@H](CO)CN1c1ccc(-c2ccc(/C=N/N3CCS(=O)(=O)CC3)nc2)c(F)c1 | remaining at 1 h | 102

Entry CC(C)N/N=C/c1ccc(-c2ccc(N3C[C@H](CO)OC3=O)cc2F)cn1 ; remaining at 1 h = 80.2

====

- TEST DESCRIPTION: Microsomal stability in dog liver microsomes assessed as elimination half life pretreated with compound upto 60 mins followed by NADPH addition and measured after 60 mins by LC/MS analysis
- Format: ADME, Canis lupus familiaris, Microsome
- CONDITION CONTEXT: liver microsomes, time < 120 min, read-out: beta t1/2
EXPERIMENTAL READOUT: half-life (h)
Numeric only. Scale: h

These solved cases illustrate the format of a correct answer.
COMPOUND | half-life [h]
O=C1O[C@@H](CO)CN1c1ccc(-c2ccc(/C=N/N3CCOCC3)nc2)c(F)c1 | 19.2
O=C1O[C@@H](CO)CN1c1ccc(-c2ccc(/C=N/N3CCCCC3)nc2)c(F)c1 | 1.78
CC(=O)NC[C@H]1CN(c2ccc(N3CCOCC3)c(F)c2)C(=O)O1 | 34.6

Let's switch to this compound now.
The reported half-life of the compound CC(C)N/N=C/c1ccc(-c2ccc(N3C[C@H](CO)OC3=O)cc2F)cn1 was 3.37
